Protocol notes: Cytotoxicity against human HL60 cells
Format: functional, cell-based
Experimental context: HL-60
Quantity kind: IC50 (µM)
Give bare numbers, in µM.

{"columns": ["Cpd smiles", "Numeric readout"],
 "data": [
  ["C[C@H]1[C@H](C)CC[C@]2(C)CC[C@]3(C)C(=CC(=O)[C@@H]4[C@@]5(C)CC[C@@H](O)[C@](C)(NC(=O)CCCCC(=O)NO)[C@@H]5CC[C@]43C)[C@H]12", 6.6],
  ["C[C@H]1[C@H](C)CC[C@]2(C)CC[C@]3(C)C(=CC[C@@H]4[C@@]5(C)CC[C@@H](O)[C@](C)(NC(=O)CCCC(=O)NO)[C@@H]5CC[C@]43C)[C@H]12", 11.7],
  ["CC(=O)O[C@@H]1CC[C@]2(C)[C@H]3CC=C4[C@@H]5[C@@H](C)[C@H](C)CC[C@]5(C)CC[C@@]4(C)[C@]3(C)CC[C@H]2[C@@]1(C)N", 10]
]}

For each listed entry, give its IC50.
1. C[C@H]1[C@H](C)CC[C@]2(C)CC[C@]3(C)C(=CC[C@@H]4[C@@]5(C)CC[C@@H](O)[C@](C)(NC(=O)CCCC(=O)O)[C@@H]5CC[C@]43C)[C@H]12
2. C[C@H]1[C@H](C)CC[C@]2(C)CC[C@]3(C)C(=CC(=O)[C@@H]4[C@@]5(C)CC[C@@H](O)[C@](C)(NC(=O)CCCCCCC(=O)NO)[C@@H]5CC[C@]43C)[C@H]12
3. COC(=O)CCCC(=O)N[C@]1(C)[C@@H]2CC[C@]3(C)[C@H](C(=O)C=C4[C@@H]5[C@@H](C)[C@H](C)CC[C@]5(C)CC[C@]43C)[C@@]2(C)CC[C@H]1OC(C)=O

Result:
13.4
3
17.6
